Reported IC50 is given for each of the following compounds.
- ASSAYED_TARGET: And‐1 (Homo sapiens, UniProt O75717)
- Construct: expressed in transfected cells
- PROCEDURE_SUMMARY: And‐1 luciferase reporter assay (qHTS of LOPAC)
- Format: cell-based
- CONDITION_SET: reduction of luciferase activity, qHTS; column 2; read-out: IC50 (uM) 2

# COMPOUND, IC50, µM
data = [
    ("O=C1C(SCCO)=C(SCCO)C(=O)c2ccccc21", 7.68),
    ("C=CCc1cccc(/C=N/NC(=O)CN2CCN(Cc3ccccc3)CC2)c1O", 23.8),
    ("CCN(CC)CCOc1ccc(Nc2ncc3cc(-c4c(Cl)cccc4Cl)c(=O)n(C)c3n2)cc1 [PD-166285 hydrate]", 2.73),
    ("CC[n+]1c(/C=C/C=C2/N(C)c3ccccc3C2(C)C)sc2ccccc21 [AC-93253 iodide]", 0.44),
]

---

- ASSAYED_TARGET: And‐1 (Homo sapiens, UniProt O75717)
- Construct: expressed in transfected cells
- Sequence (O75717 1-1129): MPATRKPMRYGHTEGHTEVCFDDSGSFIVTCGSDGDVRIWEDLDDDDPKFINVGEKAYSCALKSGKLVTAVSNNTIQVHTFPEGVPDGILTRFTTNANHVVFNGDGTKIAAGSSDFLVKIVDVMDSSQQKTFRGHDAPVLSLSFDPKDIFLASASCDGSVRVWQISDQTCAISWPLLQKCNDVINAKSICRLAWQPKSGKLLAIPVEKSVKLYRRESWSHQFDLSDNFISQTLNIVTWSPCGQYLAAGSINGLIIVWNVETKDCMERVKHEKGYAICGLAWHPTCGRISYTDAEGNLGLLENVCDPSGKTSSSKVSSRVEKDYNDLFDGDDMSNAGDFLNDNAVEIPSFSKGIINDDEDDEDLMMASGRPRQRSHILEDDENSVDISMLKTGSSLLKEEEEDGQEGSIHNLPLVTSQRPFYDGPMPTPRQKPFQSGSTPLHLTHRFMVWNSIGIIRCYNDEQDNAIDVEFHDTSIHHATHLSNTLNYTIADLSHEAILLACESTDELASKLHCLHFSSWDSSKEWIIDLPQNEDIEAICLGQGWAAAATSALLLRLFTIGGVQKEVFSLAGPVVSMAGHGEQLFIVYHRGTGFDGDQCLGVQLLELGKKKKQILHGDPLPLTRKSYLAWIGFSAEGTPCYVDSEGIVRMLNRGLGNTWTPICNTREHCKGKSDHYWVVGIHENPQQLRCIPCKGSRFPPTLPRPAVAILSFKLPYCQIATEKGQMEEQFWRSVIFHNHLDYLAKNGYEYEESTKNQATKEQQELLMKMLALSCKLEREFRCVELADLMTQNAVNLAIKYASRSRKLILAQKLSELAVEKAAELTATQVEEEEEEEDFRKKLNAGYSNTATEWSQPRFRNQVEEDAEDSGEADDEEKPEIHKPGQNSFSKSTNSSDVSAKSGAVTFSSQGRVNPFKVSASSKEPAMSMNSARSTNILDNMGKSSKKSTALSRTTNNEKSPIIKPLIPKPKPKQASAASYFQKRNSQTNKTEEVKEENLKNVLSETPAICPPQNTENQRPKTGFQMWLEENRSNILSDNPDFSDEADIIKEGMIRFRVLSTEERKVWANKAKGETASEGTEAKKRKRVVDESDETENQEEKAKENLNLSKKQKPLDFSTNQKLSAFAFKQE
- PROCEDURE_SUMMARY: And‐1 luciferase reporter assay (qHTS of LOPAC)
- Assay type: cell-based
- CONDITION_SET: reduction of luciferase activity, qHTS; average of 1 and 2; read-out: IC50 (uM) average

# COMPOUND, MEASUREMENT_UNIT, IC50
data = [
    ("O=C1C(SCCO)=C(SCCO)C(=O)c2ccccc21", "µM", 9.42),
    ("CC[n+]1c(/C=C/C=C2/N(C)c3ccccc3C2(C)C)sc2ccccc21 [AC-93253 iodide]", "µM", 0.76),
    ("CCN(CC)CCOc1ccc(Nc2ncc3cc(-c4c(Cl)cccc4Cl)c(=O)n(C)c3n2)cc1 [PD-166285 hydrate]", "µM", 3.03),
    ("C=CCc1cccc(/C=N/NC(=O)CN2CCN(Cc3ccccc3)CC2)c1O", "µM", 21.3),
]
